Molecular target: Rap guanine nucleotide exchange factor 3 (Homo sapiens)
Assay: Counterscreen qHTS for agonist of cAMP-regulated guanine nucleotide exchange factor 3 (EPAC1) (AID 1645889); further: % of control where 0% means no effect; nearly all actives have a fitted effect of over 40% in size
Details: EPAC1 Rap1B-BODIPY-GDP exchange, fluorescence; series mostly up to 154 µM
Excerpt: Assay Provider (PI): Xiaodong Cheng Ph.D. The University of Texas Medical Branch, […], TX MLPCN Grant: NS066510 In multi-cellular eukaryotic organisms, the effects of cAMP are transduced by two ubiquitously-expressed intracellular cAMP receptors, the classic protein kinase A/cAMP-dependent protein kinase (PKA/cAPK) and the more recently discovered exchange protein directly activated by cAMP/cAMP-regulated guanine nucleotide exchange factor (EPAC/cAMP-GEF). […]
Inconclusive results are not listed. Active and inactive are the calls of the source. The call rests on the fitted dose curve; in most records, active means well fitted activation curve with a large enough effect; inconclusive means small, poorly fitted or top-dose-only effect, or another doubt; inactive means no such curve, though single readings can be large or run the other way.
reported_metric: activation

Example compounds with recorded activation:
Lookup: # return recorded activation for input CCCCN(C(=O)Cn1ncc(Cl)c(Cl)c1=O)c1c(N)n(CC(C)C)c(=O)[nH]c1=O
Found: 16.5% [at 30.8 µM] (inactive)

Lookup: # return recorded activation for input Cc1nc(Nc2ccc(S(=O)(=O)N3CCCCC3C)cc2)c2nnn(Cc3ccccc3)c2n1 (stereo not given)
Found: inactive

Lookup: # return recorded activation for input Cc1csc(NC(=O)CSCC(=O)O)c1-c1nc2ccccc2s1
Found: inactive

Lookup: # return recorded activation for input COc1cccc(-c2nc(SCC(=O)Nc3nc(-c4ccccc4)c(C)s3)[nH]c(=O)c2C#N)c1
Found: inactive

Lookup: # return recorded activation for input O=c1c(-c2ccc(F)cc2)[n+]([O-])c2ccccc2n1OCc1ccccn1
Found: 6.02% [at 30.8 µM] (inactive)

---
Lookup: # return recorded activation for input COc1cccc(-n2ccn(CC(=O)NCc3ccc(C)cc3)c(=O)c2=O)c1
Found: inactive

Lookup: # return recorded activation for input CCCN1C(=O)c2ccccc2NC1c1ccc(Cl)c(Cl)c1 (stereo not given)
Found: 12.5% [at 30.8 µM] (inactive)

Lookup: # return recorded activation for input CCOC(=O)C1=C(C)N(C)C(C)=C(C(=O)OCC)C1c1ccc(Cl)cc1
Found: inactive

Lookup: # return recorded activation for input Cc1ccc2nc3sc(C(=O)Nc4c(C)[nH]c(=O)[nH]c4=O)c(N)c3cc2c1
Found: 5.21% [at 30.8 µM] (inactive)

Lookup: # return recorded activation for input Cc1ccc(NC(=O)COC(=O)c2ccccc2-c2nc3ccccc3s2)c(C)c1
Found: inactive

Lookup: # return recorded activation for input CCCc1nc2ccc(C(=O)OC)cn2c1Cc1ccccc1C(F)(F)F
Found: inactive

Lookup: # return recorded activation for input O=C(O)C1=CC[C@@H](c2ccc(Cl)cc2)N(S(=O)(=O)c2ccc(Cl)cc2)[C@H]1c1ccc(Br)cc1
Found: inactive

Lookup: # return recorded activation for input COC(=O)c1cc2occc2n1Cc1cccc(C)c1
Found: inactive

Lookup: # return recorded activation for input CCCc1cc2c(-c3ccccc3)cc(=O)oc2cc1OCc1ccc(C(=O)O)o1
Found: inactive

Lookup: # return recorded activation for input CN(CC(=O)Nc1ccc(F)cc1)C(=O)COC(=O)C1CCN(c2ccc(C(F)(F)F)cn2)CC1
Found: inactive

Lookup: # return recorded activation for input CC(C)C[C@H]1CNC(=O)C(=O)N1C[C@@H]1CCCN1C[C@H](Cc1ccc(O)cc1)N1C[C@H](Cc2ccccc2)N(CC2CCCCC2)C(=O)C1=O
Found: inactive

Lookup: # return recorded activation for input Cc1ccc(C)c(Cn2cnc3ccccc3c2=O)c1
Found: inactive

Lookup: # return recorded activation for input O=C(Cn1ccc(=O)[nH]c1=O)c1ccc([N+](=O)[O-])o1
Found: 18.6% [at 30.8 µM] (inactive)

Lookup: # return recorded activation for input CCN(CC(=O)Nc1ccccc1C(=O)NC1CC1)Cc1cccs1
Found: inactive

Lookup: # return recorded activation for input Cc1ccc(NC(=O)CN2C(=O)S/C(=C/c3ccc(O)c([N+](=O)[O-])c3)C2=O)cc1C
Found: inactive

----------
target: Rap guanine nucleotide exchange factor 4 (Homo sapiens); assay: Confirmatory qHTS for antagonist of cAMP-regulated guanine nucleotide exchange factor 4 (EPAC2) (AID 1645885); settings: EPAC2 Rap1B-BODIPY-GDP exchange fluorescence, biochemical; series mostly up to 12.7 µM; further: nearly all actives have a fitted effect of over 25% in size
Records with an inconclusive call do not appear. Activity calls are given as the source filed them. Calls come from the whole dose curve; as a rule, active = well fitted inhibition curve with a large enough effect; inconclusive = small, poorly fitted or top-dose-only effect; inactive = no such curve, though single readings can be large or run the other way.
Bench note: report the call from active, inactive

Illustrative cases are given below, each with its answer.
Lookup: Please share the test call associated with Cn1cc(-c2cnc3c(NC=O)cc(-c4cccc(C(F)(F)F)c4)cn23)cn1 .
Found: inactive

Lookup: Please share the test call associated with CCc1ccc2occ(CC(=O)Nc3ccc(C)c(C)c3)c2c1 .
Found: inactive

Lookup: Please share the test call associated with COc1ccc(C(=S)N2CCOCC2)cc1OC(=O)c1ccccc1Cl .
Found: inactive

Lookup: Please share the test call associated with COc1ccc(OC)c(N2C(=O)[C@@H]3C(c4ccccc4Cl)=NO[C@@H]3C2=O)c1 .
Found: active

Lookup: Please share the test call associated with N#C/C(=C\c1ccc(Sc2ccccc2)o1)c1nc2ccccc2[nH]1 .
Found: inactive

---
Lookup: Please share the test call associated with CCc1nnc(NC(=O)c2ccc(-c3cccc(C(F)(F)F)c3)o2)s1 .
Found: inactive

Lookup: Please share the test call associated with COc1ccc(S(=O)(=O)Nc2c(C)nn(C)c2C)cc1Br .
Found: inactive

Lookup: Please share the test call associated with Cc1ccc(S(=O)(=O)NCCC(=O)N2CCC(Cc3ccccc3)CC2)cc1 .
Found: inactive

Lookup: Please share the test call associated with CC1=NN(c2ccc(Br)cc2)C(=O)/C1=C/c1cccs1 .
Found: inactive

Lookup: Please share the test call associated with COc1ccc(OCC(=O)NCc2ccc3c(c2)CCN3C(=O)c2cccc(C)c2)cc1 .
Found: inactive

----------
tested on: CP291; experiment: qHTS profiling for inhibitors of Plasmodium falciparum proliferation (AID 504749); further: nearly all actives have a fitted effect of over 60% in size; conditions: P. falciparum in erythrocytes, SYBR Green DNA, 72 h; series mostly up to 28.7 µM
Results filed as inconclusive are left out. The source made the active and inactive calls. The call rests on the fitted dose curve; in most records, active means well fitted inhibition curve with a large enough effect; inconclusive means small, poorly fitted or top-dose-only effect; inactive means flat fitted curve, though single readings scatter. Bridge positions count the residues as written; N and C are the ends. Square brackets hold non-standard residues; d marks the D form. Peptide text beside a SMILES is read from it. * marks the point of attachment. Octanoyl(6-Me) = CCC(C)CCCCC(=O)*; Dab = NCC[CH](N)C(=O)O
Bench note: report the call from t (active), f (inactive)

Illustrative cases are given below, each with its answer.
Lookup: Please share the test call associated with C/C=C\c1ccc(OC)cc1 .
Found: f

Lookup: Please share the test call associated with CCC(=O)O[C@@H](OP(=O)(CCCCc1ccccc1)CC(=O)N1C[C@H](C2CCCCC2)C[C@H]1C(=O)O)C(C)C (stereo partly specified) .
Found: f

---
Lookup: Please share the test call associated with CCC(C)CCCCC(=O)NC(CCN)C(=O)NC(C(=O)NC(CCN)C(=O)NC1CCNC(=O)C(C(C)O)NC(=O)C(CCN)NC(=O)C(CCN)NC(=O)C(CC(C)C)NC(=O)C(Cc2ccccc2)NC(=O)C(CCN)NC1=O)C(C)O (stereo unspecified) ({Octanoyl(6-Me)}-[Dab]T[Dab][Dab][Dab]FL[Dab][Dab]T; lactam 4-C; configuration not given here) .
Found: f

Lookup: Please share the test call associated with CO[C@@H]1[C@@H](OC2OC(C)C(OC3CC(C)(O)C(OC(=O)CC(C)C)C(C)O3)C(N(C)C)C2O)[C@@H](CC=O)C[C@@H](C)C(=O)/C=C\C2O[C@H]2C[C@@H](C)OC(=O)C[C@H]1OC(C)=O (stereo partly specified) .
Found: t

Lookup: Please share the test call associated with CC(=O)O[C@@]12CO[C@@H]1C[C@H](O)[C@@]1(C)C(=O)[C@H](O)C3=C(C)[C@@H](OC(=O)C(O)[C@@H](NC(=O)OC(C)(C)C)c4ccccc4)C[C@@](O)([C@@H](OC(=O)c4ccccc4)[C@H]21)C3(C)C (stereo partly specified) .
Found: t

Lookup: Please share the test call associated with CO/N=C(/C(=O)N[C@@H]1C(=O)N2C(C(=O)O)=CCS[C@H]12)c1csc(N)n1 .
Found: f

Lookup: Please share the test call associated with CN1CC[C@H](CN2c3ccccc3Sc3ccccc32)C1 .
Found: t

Lookup: Please share the test call associated with CCN1/C(=C/C=C/C=C/c2sc3ccccc3[n+]2CC)Sc2ccccc21 .
Found: t

Lookup: Please share the test call associated with CC(C)CN(C[C@@H](OP(=O)(O)O)[C@H](Cc1ccccc1)NC(=O)O[C@@H]1CCOC1)S(=O)(=O)c1ccc(N)cc1 .
Found: f

Lookup: Please share the test call associated with CN(C)CCCCCCN(C)C .
Found: f

Lookup: Please share the test call associated with CC1CCC(C(C)C)C(OC(=O)c2ccccc2O)C1 (stereo unspecified) .
Found: f

----------
target: Rap guanine nucleotide exchange factor 3 (Homo sapiens); test: Counterscreen qHTS for agonist of cAMP-regulated guanine nucleotide exchange factor 3 (EPAC1) (AID 1645889); details: EPAC1 Rap1B-BODIPY-GDP exchange, fluorescence; series mostly up to 154 µM; further: % of control where 0% means no effect; nearly all actives have a fitted effect of over 40% in size
Results filed as inconclusive are left out. Calls of active or inactive are those of the source. Calls come from the whole dose curve; as a rule, active = well fitted activation curve with a large enough effect; inconclusive = small, poorly fitted or top-dose-only effect, or another doubt; inactive = no such curve, though single readings can be large or run the other way.
reported_metric: activation

Lookup: # return recorded activation for input CCCCc1nc(SCCOC)c2c(=O)n(C)c(=O)n(C)c2n1
Found: -0.239% [at 30.8 µM] (inactive)

Lookup: # return recorded activation for input COc1cc(/C=C2\SC(=S)N(NC(=O)c3ccc(O)cc3)C2=O)ccc1O
Found: inactive

Lookup: # return recorded activation for input COc1ccc(Br)cc1/C=N/Nc1ccc(S(=O)(=O)Nc2ccccc2C(=O)O)cc1[N+](=O)[O-]
Found: 19% [at 30.8 µM] (inactive)

Lookup: # return recorded activation for input CCOc1ncccc1C(=O)OC(C)C(=O)Nc1ccc(Cl)cn1 (configuration not stated)
Found: 15.5% [at 30.8 µM] (inactive)

Lookup: # return recorded activation for input CSc1ccc(CCNC(=O)c2csc3c2CCCCC3)cc1
Found: inactive

---
Lookup: # return recorded activation for input CC(C)(C)c1ccc(OCC(=O)Nc2ccc(C(=O)Nc3ccccc3C(=O)O)cc2)cc1
Found: inactive

Lookup: # return recorded activation for input O=C(O)c1cc(N/N=C/C=C/c2ccccc2)ccc1Cl
Found: inactive

Lookup: # return recorded activation for input Cc1c(C(=O)N2CCC2)oc2ccc(Br)cc12
Found: inactive

Lookup: # return recorded activation for input O=C(Nc1ncccc1O)c1c(O)c2ccccc2[nH]c1=O
Found: inactive

Lookup: # return recorded activation for input O=C1C=C(c2ccccc2Oc2ccccc2)C[C@@H](c2ccc(F)cc2)C1
Found: inactive

Lookup: # return recorded activation for input CCOC(=O)C1=C(N)Oc2ccc3ccccc3c2C1c1ccc(O)cc1 (configuration not stated)
Found: inactive

Lookup: # return recorded activation for input COC(=O)c1ccc2nc(-c3ccco3)c(Cc3ccccc3)n2c1
Found: 10% [at 30.8 µM] (inactive)

Lookup: # return recorded activation for input COc1ccc(C(=O)c2ccc(Br)cc2)c(OC)c1OC
Found: inactive

Lookup: # return recorded activation for input CC(=O)C1=C(O)C2(C)c3c(O)c(C)c(O)c(C(C)=O)c3OC2CC1=O (configuration not stated)
Found: -4.12% [at 30.8 µM] (inactive)

Lookup: # return recorded activation for input CC(/C=C1\SC(=S)N(CCC(=O)Nc2cccc(C(=O)O)c2)C1=O)=C\c1ccccc1
Found: 16.2% [at 30.8 µM] (inactive)

Lookup: # return recorded activation for input COc1cc2ccccc2cc1C(=O)NC(=S)Nc1cccc(C(=O)O)c1
Found: 7.44% [at 30.8 µM] (inactive)

Lookup: # return recorded activation for input O=S(=O)(O)c1ccc(NN=Cc2ccccc2O)cc1
Found: 20.1% [at 30.8 µM] (inactive)

Lookup: # return recorded activation for input CCc1nnc(NS(=O)(=O)c2ccc(NCc3cc(Cl)ccc3O)cc2)s1
Found: 11.7% [at 30.8 µM] (inactive)

Measured values drawn from PubChem BioAssay (NCATS) for this set.
